system: BRD4 bromodomains (Homo sapiens, UniProt O60885)
Construct: fused on or other part: T7 phage capsid protein (phage-display fusion; the phage DNA is read out by qPCR)
assay.text: BROMOscan bromodomain competition binding assay (DiscoveRx)
experimental.context: Kd from 11 compound concentrations ranging from 0 to 10 μM, read-out: BROMOscan Relative Activity
pKd: −log10 of the molar value.
measured.parameter: pKd

Would you please look over these solved cases?
>  <mol>
Cc1noc(C)c1-c1ccc2nc(N3CCN(CCN(C)C)CC3)nc(O)c2c1

>  <pKd>
5.30 to 6.30

$$$$
>  <mol>
Cc1noc(C)c1-c1ccc2nc(N3CCN(C(=O)CN)CC3)nc(NCc3cccc(Cl)c3)c2c1

>  <pKd>
> 6.30

$$$$
>  <mol>
Cc1noc(C)c1-c1ccc2nc(N3CCc4c(cnn4C)C3)nc(NCc3cccc(Cl)c3)c2c1

>  <pKd>
5.30 to 6.30

$$$$
>  <mol>
Cc1cncc(CNC(=O)c2nc(NCc3cccc(Cl)c3)c3cc(-c4c(C)noc4C)ccc3n2)c1

>  <pKd>
> 6.30

$$$$
>  <mol>
Cn1cc(-c2ccc3nc(N4CCN(CC(C)(C)O)CC4)nc(NCc4cccc(Cl)c4)c3c2)ccc1=O

>  <pKd>
> 6.30

$$$$
>  <mol>
Cn1cc(-c2ccc3nc(-c4cnn(CCC#N)c4)nc(NCc4cccc(Cl)c4)c3c2)ccc1=O

>  <pKd>
> 6.30

$$$$

GET /values?readout=pKd&item= `Cc1noc(C)c1-c1ccc2nc(C(=O)N(C)C3CCN(C)CC3)nc(NCc3cccc(Cl)c3)c2c1` > 6.30

Now consider `Cc1noc(C)c1-c1ccc2nc(N3CCc4cnn(C)c4C3)nc(N3CCOC[C@@H]3c3ccccc3)c2c1` . > 6.30

###

system: BRD4 bromodomains (Homo sapiens, UniProt O60885)
Construct: fused on or other part: T7 phage capsid protein (phage-display fusion; the phage DNA is read out by qPCR)
assay.text: BROMOscan bromodomain competition binding assay (DiscoveRx)
experimental.context: Kd from 11 compound concentrations ranging from 0 to 10 μM, read-out: BROMOscan Relative Activity
pKd: −log10 of the molar value.
Recorded pKd, one value per entry.

>  <mol>
Cc1noc(C)c1-c1ccc2nc(N3CCS(=O)(=O)CC3)nc(NCc3cncc(Cl)c3)c2c1

>  <pKd>
> 6.30

$$$$
>  <mol>
Cc1noc(C)c1-c1ccc2nc(-c3cnn(CC(C)(C)O)c3)nc(NCc3cncc(Cl)c3)c2c1

>  <pKd>
> 6.30

$$$$
>  <mol>
Cc1noc(C)c1-c1ccc2nc(-c3c(C)noc3C)nc(NCc3cccs3)c2c1

>  <pKd>
5.30 to 6.30

$$$$
>  <mol>
Cc1noc(C)c1-c1ccc2nc(C(=O)N3CCN(CCN(C)C)CC3)nc(NCc3cccc(Cl)c3)c2c1

>  <pKd>
5.30 to 6.30

$$$$
>  <mol>
Cc1noc(C)c1-c1ccc2nc(N3CCN(S(C)(=O)=O)CC3)nc(N3CCOC[C@H]3c3ccccc3)c2c1

>  <pKd>
> 6.30

$$$$
>  <mol>
Cc1noc(C)c1-c1ccc2nc(C(=O)Nc3cnn(C)c3)nc(NCc3cccc(Cl)c3)c2c1

>  <pKd>
> 6.30

$$$$

GET /values?readout=pKd&item= `Cc1noc(C)c1-c1ccc2nc(-c3cnn(C(C)(C)CO)c3)nc(N3CCOC[C@@H]3c3ccccc3)c2c1` > 6.30

Now consider `Cc1noc(C)c1-c1ccc2nc(-c3cnn(CC(N)=O)c3)nc(N3CCOC[C@@H]3c3ccccc3)c2c1` . > 6.30

Now consider `Cc1noc(C)c1-c1ccc2nc(N3CCN(CCN(C)C)CC3)nc(NCc3ccc(Cl)cc3)c2c1` . 5.30 to 6.30

Now consider `Cn1cc(-c2ccc3ncnc(Nc4ccc(Cl)cc4)c3c2)ccc1=O` . < 5.30

Now consider `Cc1noc(C)c1-c1ccc2nc(-c3cnn(CCN4CCOCC4)c3)nc(NCc3cccc(Cl)c3)c2c1` . > 6.30
